Cited source for all entries: the Immune Epitope Database (IEDB)

- TARGET_SYSTEM: HLA-A*69:01
- PROCEDURE_DETAILS: IEDB peptide-MHC binding, purified MHC/competitive/fluorescence; filed as Kd, often an IC50 or EC50 that approximates it; bounds were set here for any values at or beyond the usual limits of such assays
- STATED_CONDITIONS: source organism: Escherichia coli 536
REPORTED_METRIC: Kd

Asked: Fill in the blank: the reported Kd of `QTDNDIWFW` is ____.
Given back: ≥ 20 µM

###

- TARGET_SYSTEM: HLA-B*18:01
- PROCEDURE_DETAILS: IEDB peptide-MHC binding, purified MHC/competitive/radioactivity; filed as Kd, often an IC50 or EC50 that approximates it; bounds were set here for any values at or beyond the usual limits of such assays
- STATED_CONDITIONS: source organism: Mammarenavirus choriomeningitidis
REPORTED_METRIC: Kd (µM)
Your answer should be a plain number; it is taken to be in µM.

[
  {
    "SEQUENCE_RECORD": "AEQLMSLAA",
    "TARGET_SYSTEM": "HLA-B*18:01",
    "VALUE_UNITS": "µM",
    "Kd": 3.64
  }
]

Consider now this further sequence.
Asked: Fill in the blank: the reported Kd of `REGLLNYSM` is ____.
Given back: 0.148

###

- TARGET_SYSTEM: HLA-B*15:09
- PROCEDURE_DETAILS: IEDB peptide-MHC binding, purified MHC/competitive/fluorescence; filed as Kd, often an IC50 or EC50 that approximates it; bounds were set here for any values at or beyond the usual limits of such assays
- STATED_CONDITIONS: source organism: Ectromelia virus
REPORTED_METRIC: Kd

Asked: Fill in the blank: the reported Kd of `VIARTHTAL` is ____.
Given back: ≥ 20 µM

###

- TARGET_SYSTEM: HLA-B*15:01
- PROCEDURE_DETAILS: IEDB peptide-MHC binding, purified MHC/direct/fluorescence; filed as Kd, often an IC50 or EC50 that approximates it; bounds were set here for any values at or beyond the usual limits of such assays
- STATED_CONDITIONS: source organism: Yellow fever virus 17D
REPORTED_METRIC: Kd (nM)
Your answer should be a plain number; it is taken to be in nM.

Asked: Fill in the blank: the reported Kd of `SVKEDLVAY` is ____.
Given back: 95.5

###

- TARGET_SYSTEM: HLA-A*31:01
- PROCEDURE_DETAILS: IEDB peptide-MHC binding, purified MHC/direct/fluorescence; filed as Kd, often an IC50 or EC50 that approximates it; bounds were set here for any values at or beyond the usual limits of such assays
- STATED_CONDITIONS: source organism: Brucella abortus
REPORTED_METRIC: Kd

Asked: Fill in the blank: the reported Kd of `RFRCVGPAP` is ____.
Given back: ≥ 20 µM

###

- TARGET_SYSTEM: HLA-A*29:02
- PROCEDURE_DETAILS: IEDB peptide-MHC binding, purified MHC/competitive/radioactivity; filed as Kd, often an IC50 or EC50 that approximates it; bounds were set here for any values at or beyond the usual limits of such assays
- STATED_CONDITIONS: source organism: SARS coronavirus Tor2
REPORTED_METRIC: Kd (nM)
Your answer should be a plain number; it is taken to be in nM.

Some sequences with known Kd results, for comparison:
[
  {
    "SEQUENCE_RECORD": "AFIDTIKSL",
    "TARGET_SYSTEM": "HLA-A*29:02",
    "VALUE_UNITS": "nM",
    "Kd": 2950
  },
  {
    "SEQUENCE_RECORD": "HTSSMRGVY",
    "TARGET_SYSTEM": "HLA-A*29:02",
    "VALUE_UNITS": "nM",
    "Kd": 8.21
  }
]

Asked: Fill in the blank: the reported Kd of `MWSFNPETNI` is ____.
Given back: 13300

Asked: How about this sequence: `FFTYLCGFI`
Given back: 822

###

- TARGET_SYSTEM: HLA-A*26:01
- PROCEDURE_DETAILS: IEDB peptide-MHC binding, purified MHC/competitive/radioactivity; filed as Kd, often an IC50 or EC50 that approximates it; bounds were set here for any values at or beyond the usual limits of such assays
- STATED_CONDITIONS: source organism: Mammarenavirus lassaense
REPORTED_METRIC: Kd

[
  {
    "SEQUENCE_RECORD": "RYWYLNHTV",
    "Kd": "≥ 77.9 µM"
  }
]

Consider now this further sequence.
Asked: Fill in the blank: the reported Kd of `ESDGKPQKV` is ____.
Given back: ≥ 77.9 µM

###

- TARGET_SYSTEM: HLA-B*44:03
- PROCEDURE_DETAILS: IEDB peptide-MHC binding, purified MHC/competitive/radioactivity; filed as Kd, often an IC50 or EC50 that approximates it; bounds were set here for any values at or beyond the usual limits of such assays
- STATED_CONDITIONS: source organism: Mammarenavirus brazilense
pKd: −log10 of the molar value.
REPORTED_METRIC: pKd

Asked: Fill in the blank: the reported pKd of `SDHLLSEML` is ____.
Given back: ≤ 4.11

###

- TARGET_SYSTEM: HLA-A*26:01
- PROCEDURE_DETAILS: IEDB peptide-MHC binding, purified MHC/direct/fluorescence; filed as Kd, often an IC50 or EC50 that approximates it; bounds were set here for any values at or beyond the usual limits of such assays
- STATED_CONDITIONS: source organism: Brucella abortus 2308
REPORTED_METRIC: Kd

Asked: Fill in the blank: the reported Kd of `KRASGDPYF` is ____.
Given back: ≥ 20 µM

###

- TARGET_SYSTEM: HLA-A*31:01
- PROCEDURE_DETAILS: IEDB peptide-MHC binding, purified MHC/competitive/fluorescence; filed as Kd, often an IC50 or EC50 that approximates it; bounds were set here for any values at or beyond the usual limits of such assays
- STATED_CONDITIONS: source organism: Shewanella baltica OS155
REPORTED_METRIC: Kd (nM)
Your answer should be a plain number; it is taken to be in nM.

Asked: Fill in the blank: the reported Kd of `ATREGKHGK` is ____.
Given back: 81.3

###

- TARGET_SYSTEM: HLA-B*15:01
- PROCEDURE_DETAILS: IEDB peptide-MHC binding, purified MHC/competitive/fluorescence; filed as Kd, often an IC50 or EC50 that approximates it; bounds were set here for any values at or beyond the usual limits of such assays
- STATED_CONDITIONS: source organism: Salmonella enterica subsp. enterica serovar Paratyphi B str. SPB7
pKd: −log10 of the molar value.
REPORTED_METRIC: pKd

Asked: Which measured pKd belongs to `FSDLLSMAW` , tested on HLA-B*15:01?
Given back: ≤ 4.70

###

- TARGET_SYSTEM: HLA-A*02:01
- PROCEDURE_DETAILS: IEDB peptide-MHC binding, purified MHC/competitive/fluorescence; filed as Kd, often an IC50 or EC50 that approximates it; bounds were set here for any values at or beyond the usual limits of such assays
- STATED_CONDITIONS: source organism: Salmonella enterica subsp. enterica serovar Typhi
REPORTED_METRIC: Kd

Asked: Fill in the blank: the reported Kd of `LSEEANWAF` is ____.
Given back: ≥ 20 µM

###

- TARGET_SYSTEM: HLA-A*31:01
- PROCEDURE_DETAILS: IEDB peptide-MHC binding, purified MHC/competitive/fluorescence; filed as Kd, often an IC50 or EC50 that approximates it; bounds were set here for any values at or beyond the usual limits of such assays
- STATED_CONDITIONS: source organism: Bacillus anthracis str. A0488
REPORTED_METRIC: Kd

Asked: Fill in the blank: the reported Kd of `IQKGMFVVK` is ____.
Given back: 15.8 nM

###

- TARGET_SYSTEM: HLA-A*02:12
- PROCEDURE_DETAILS: IEDB peptide-MHC binding, purified MHC/direct/fluorescence; filed as Kd, often an IC50 or EC50 that approximates it; bounds were set here for any values at or beyond the usual limits of such assays
- STATED_CONDITIONS: source organism: Zaire ebolavirus
REPORTED_METRIC: Kd

[
  {
    "SEQUENCE_RECORD": "AFHQLVQVI",
    "TARGET_SYSTEM": "HLA-A*02:12",
    "RESULT": "≥ 20 µM"
  }
]

Consider now this further sequence.
Asked: Fill in the blank: the reported Kd of `TAAIMLASY` is ____.
Given back: ≥ 20 µM
